# Tested on: S. haemolyticus AVAH 88-3
# experimentalProtocol: MIC, agar dilution
# Assay type: cell-based
# conditionNotes: S. haemolyticus AVAH 88-3
outcomeMeasure: MIC (µg/mL)
Give just the numeric value; µg/mL need not be written.

Examples from the recorded data:
CN(C)c1cc(NC(=O)COCc2ccccc2)c(O)c2c1CC1CC3C(N(C)C)C(O)=C(C(N)=O)C(=O)C3(O)C(O)=C1C2=O (centres unmarked) : 4
CN(C)c1cc(NC(=O)CN)c(O)c2c1CC1CC3C(N(C)C)C(O)=C(C(N)=O)C(=O)C3(O)C(O)=C1C2=O.O=C(O)C(F)(F)F (centres unmarked) : 1
CC(=O)OCC(=O)Nc1cc(N(C)C)c2c(c1O)C(=O)C1=C(O)[C@]3(O)C(=O)C(C(N)=O)=C(O)[C@@H](N(C)C)[C@@H]3C[C@@H]1C2 : 0.5
CN(C)c1cc(NC(=O)c2ccccc2)c(O)c2c1CC1CC3C(N(C)C)C(O)=C(C(N)=O)C(=O)C3(O)C(O)=C1C2=O (centres unmarked) : 4

input: Item: CN(C)C1C(O)=C(C(N)=O)C(=O)C2(O)C(O)=C3C(=O)c4c(O)c(NC=O)cc(I)c4CC3CC12.O=S(=O)(O)O (centres unmarked) Test system: S. haemolyticus AVAH 88-3 Read-out: MIC Value: ?
output: 0.06

input: Item: COC(=O)Nc1cc(N(C)C)c2c(c1O)C(=O)C1=C(O)[C@]3(O)C(=O)C(C(N)=O)=C(O)[C@@H](N(C)C)C3CC1C2 (some centres unmarked) Test system: S. haemolyticus AVAH 88-3 Read-out: MIC Value: ?
output: 0.25

input: Item: CN(C)c1cc(NC(=O)c2ccc([N+](=O)[O-])cc2)c(O)c2c1CC1CC3C(N(C)C)C(O)=C(C(N)=O)C(=O)C3(O)C(O)=C1C2=O (centres unmarked) Test system: S. haemolyticus AVAH 88-3 Read-out: MIC Value: ?
output: 4

input: Item: CN(C)c1cc(NS(=O)(=O)c2cccc([N+](=O)[O-])c2)c(O)c2c1CC1CC3C(N(C)C)C(O)=C(C(N)=O)C(=O)C3(O)C(O)=C1C2=O (centres unmarked) Test system: S. haemolyticus AVAH 88-3 Read-out: MIC Value: ?
output: 4

input: Item: CN(C)c1cc(NC(=O)c2cccc(C(F)(F)F)c2)c(O)c2c1CC1CC3C(N(C)C)C(O)=C(C(N)=O)C(=O)C3(O)C(O)=C1C2=O (centres unmarked) Test system: S. haemolyticus AVAH 88-3 Read-out: MIC Value: ?
output: 1

input: Item: Cc1ccccc1C(=O)Nc1cc(N(C)C)c2c(c1O)C(=O)C1=C(O)C3(O)C(=O)C(C(N)=O)=C(O)C(N(C)C)C3CC1C2 (centres unmarked) Test system: S. haemolyticus AVAH 88-3 Read-out: MIC Value: ?
output: 8

input: Item: CCN(CC)c1cc(NC(C)=O)c(O)c2c1CC1CC3C(N(C)C)C(O)=C(C(N)=O)C(=O)C3(O)C(O)=C1C2=O (centres unmarked) Test system: S. haemolyticus AVAH 88-3 Read-out: MIC Value: ?
output: 2

###

# Antibacterial activity (MIC) listing for each entry below
# Tested on: E. coli PRP1 TetA
# experimentalProtocol: MIC, agar dilution (Table IA)
# Format: cell-based
# conditionNotes: unit assumed

Examples from the recorded data:
CN(C)c1cc(NC(=O)CNC2CC2)c(O)c2c1CC1CC3C(N(C)C)C(O)=C(C(N)=O)C(=O)C3(O)C(O)=C1C2=O.Cl.Cl (stereo not shown) : 32 µg/mL
CN(C)CC(=O)Nc1cc(N(C)C)c2c(c1O)C(=O)C1=C(O)[C@]3(O)C(=O)C(C(=O)NCN4CCCCC4)=C(O)[C@@H](N(C)C)C3CC1C2 (stereo partly shown) : 2 µg/mL
CN(C)c1cc(NC(=O)CN2CCC2)c(O)c2c1CC1CC3C(N(C)C)C(O)=C(C(N)=O)C(=O)C3(O)C(O)=C1C2=O (stereo not shown) : 1 µg/mL

input: Which Antibacterial activity (MIC) value belongs to CN(C)c1cc(NC(=O)CNC2CCC2)c(O)c2c1CC1CC3C(N(C)C)C(O)=C(C(N)=O)C(=O)C3(O)C(O)=C1C2=O (stereo not shown) ?
output: 4 µg/mL

input: Which Antibacterial activity (MIC) value belongs to CN(C)c1cc(NC(=O)CN2CCOCC2)c(O)c2c1CC1CC3[C@H](N(C)C)C(O)=C(C(N)=O)C(=O)[C@@]3(O)C(O)=C1C2=O.Cl.Cl (stereo partly shown) ?
output: > 32 µg/mL

Source of measurements: patent USRE40086E1
